test: Evaluation of brain penetration in mice (blood and brain concentration at brain Cmax); assay type: in vivo, mouse; conditions: 1 mg/kg single oral dose, C57BL/6J mice, n=3
// returns Not satisfied unless Concentration in blood (mean ± SD) at brain Cmax is strictly below 400 nM, in which case Satisfied

[
  {
    "Compound": "C[C@H](CN1CCC(O)(C(F)(F)F)C1)[C@H]1CC[C@H]2/C(=C/C=C3C[C@@H](O)C[C@H](O)C3)CCC[C@]12C (single isomer, unassigned) [Compound B045a]",
    "Class Label": "Not satisfied"
  },
  {
    "Compound": "C[C@H](CN1CC[C@H](C(F)F)C1)[C@H]1CC[C@H]2/C(=C/C=C3C[C@@H](O)C[C@H](O)C3)CCC[C@]12C",
    "Class Label": "Satisfied"
  },
  {
    "Compound": "C=C1[C@H](O)CC(=C/C=C2\\CCC[C@]3(C)[C@@H]([C@H](C)CN4CC[C@H](OCC(F)F)C4)CC[C@@H]23)C[C@H]1O",
    "Class Label": "Satisfied"
  },
  {
    "Compound": "C=C1[C@H](O)CC(=C/C=C2\\CCC[C@]3(C)[C@@H]([C@H](C)CN4CC[C@@H](CC(F)F)C4)CC[C@@H]23)C[C@H]1O",
    "Class Label": "Satisfied"
  },
  {
    "Compound": "C=C1/C(=C\\C=C2/CCC[C@]3(C)[C@@H]([C@H](C)CN4CC[C@@H](CC(F)F)C4)CC[C@@H]23)C[C@@H](O)C[C@@H]1O",
    "Class Label": "Satisfied"
  },
  {
    "Compound": "C=C1/C(=C\\C=C2/CCC[C@]3(C)[C@@H]([C@H](C)CN4CC[C@H](C(F)F)C4)CC[C@@H]23)C[C@@H](O)C[C@@H]1O",
    "Class Label": "Not satisfied"
  }
]

---

molecular target: human VDR (Homo sapiens, UniProt P11473); assay: Evaluation of VDR transcription activity in human osteoblasts (HOS cells), luciferase reporter; conditions: Activity (EC50, VDR transcription activity), HOS cells transfected with human VDR, human RXRα and DR3 luciferase reporter; 21 hours
pEC50: −log10 of the molar value.
pEC50 listing for selected compounds.
Metric: pEC50

[
  {
    "Compound": "C=C1[C@H](O)CC(=C/C=C2\\CCC[C@]3(C)[C@@H]([C@H](C)CN4CC[C@H](CC(F)F)C4)CC[C@@H]23)C[C@H]1O",
    "Result": "8.00 to 9.00"
  },
  {
    "Compound": "C=C1/C(=C\\C=C2/CCC[C@]3(C)[C@@H]([C@H](C)CN4CCCC(O)(C(F)(F)F)C4)CC[C@@H]23)C[C@@H](O)[C@H](C)[C@@H]1O (single isomer, unassigned) [Compound C031a]",
    "Result": "> 9.00"
  },
  {
    "Compound": "C[C@H](CN1CCC[C@H](CC(F)F)C1)[C@H]1CC[C@H]2/C(=C/C=C3C[C@@H](O)C[C@H](O)C3)CCC[C@]12C",
    "Result": "6.00 to 7.00"
  },
  {
    "Compound": "C=C1[C@H](O)CC(=C/C=C2\\CCC[C@]3(C)[C@@H]([C@@H](C)CN4CCC(C(C)(F)F)CC4)CC[C@@H]23)C[C@H]1O",
    "Result": "8.00 to 9.00"
  },
  {
    "Compound": "C=C1[C@H](O)CC(=C/C=C2\\CCC[C@]3(C)[C@@H]([C@H](C)CN4CC(CC(F)F)C4)CC[C@@H]23)C[C@H]1O",
    "Result": "7.00 to 8.00"
  },
  {
    "Compound": "C[C@H](CN1CC[C@H](C(C)(F)F)C1)[C@H]1CC[C@H]2/C(=C/C=C3C[C@@H](O)C[C@H](O)C3)CCC[C@]12C",
    "Result": "7.00 to 8.00"
  },
  {
    "Compound": "C=C1[C@H](O)CC(=C/C=C2\\CCC[C@]3(C)[C@@H]([C@H](C)CN4CCC(CC(F)F)CC4)CC[C@@H]23)C[C@H]1O",
    "Result": "7.00 to 8.00"
  },
  {
    "Compound": "C[C@H](CN1CC[C@](C)(O)C1)[C@H]1CC[C@H]2/C(=C/C=C3CC(O)C[C@H](O)C3)CCC[C@]12C (stereo in doubt)",
    "Result": "7.00 to 8.00"
  },
  {
    "Compound": "C=C1/C(=C\\C=C2/CCC[C@]3(C)[C@@H]([C@H](C)CN4CCC(O)(C(F)F)CC4)CC[C@@H]23)C[C@@H](O)[C@H](C)[C@@H]1O",
    "Result": "8.00 to 9.00"
  },
  {
    "Compound": "C=C1[C@H](O)CC(=C/C=C2\\CCC[C@]3(C)[C@@H]([C@H](C)CCN4CCOC(C)(C)C4)CC[C@@H]23)C[C@H]1O",
    "Result": "8.00 to 9.00"
  },
  {
    "Compound": "C[C@@H](CN1CC[C@@H](C(F)F)C1)[C@H]1CC[C@H]2/C(=C/C=C3CC(O)C[C@H](O)C3)CCC[C@]12C (stereo in doubt)",
    "Result": "8.00 to 9.00"
  },
  {
    "Compound": "C=C1[C@H](O)CC(=C/C=C2\\CCC[C@]3(C)[C@@H]([C@H](C)CN4C[C@@H](C)OC[C@H]4C)CC[C@@H]23)C[C@H]1O",
    "Result": "7.00 to 8.00"
  },
  {
    "Compound": "C=C1/C(=C\\C=C2/CCC[C@]3(C)[C@@H]([C@H](C)CN4CC[C@@H](CCC(F)F)C4)CC[C@@H]23)C[C@@H](O)C[C@@H]1O",
    "Result": "7.00 to 8.00"
  },
  {
    "Compound": "C=C1/C(=C\\C=C2/CCC[C@]3(C)[C@@H]([C@H](C)CN4CC[C@H](C(F)F)C4)CC[C@@H]23)C[C@@H](O)C[C@@H]1O",
    "Result": "7.00 to 8.00"
  },
  {
    "Compound": "C=C1[C@H](O)CC(=C/C=C2\\CCC[C@]3(C)[C@@H]([C@H](C)CN4CC[C@H](C(C)(F)F)C4)CC[C@@H]23)C[C@H]1O",
    "Result": "8.00 to 9.00"
  },
  {
    "Compound": "C=C1/C(=C\\C=C2/CCC[C@]3(C)[C@@H]([C@H](C)CN4CCCC(C)(O)C4)CC[C@@H]23)C[C@@H](O)C[C@@H]1O (single isomer, unassigned) [Compound C037a]",
    "Result": "> 9.00"
  }
]

---

experiment: Evaluation of brain penetration in mice (blood and brain concentration at brain Cmax); format: in vivo, mouse; conditions: 1 mg/kg single oral dose, C57BL/6J mice, n=3
Metric: Concentration in brain (mean ± SD) at brain Cmax (pmol/g)

[
  {
    "Molecule": "C=C1[C@H](O)CC(=C/C=C2\\CCC[C@]3(C)[C@@H]([C@@H](C)CN4CCC(C(F)F)CC4)CC[C@@H]23)C[C@H]1O [Compound C019]",
    "Numeric Result": 614
  },
  {
    "Molecule": "C=C1/C(=C\\C=C2/CCC[C@]3(C)[C@@H]([C@H](C)CN4CC[C@H](C(F)F)C4)CC[C@@H]23)C[C@@H](O)C[C@@H]1O [Compound B020]",
    "Numeric Result": 410
  },
  {
    "Molecule": "C[C@H](CN1CC[C@H](C(F)F)C1)[C@H]1CC[C@H]2/C(=C/C=C3C[C@@H](O)C[C@H](O)C3)CCC[C@]12C [Compound B022]",
    "Numeric Result": 529
  },
  {
    "Molecule": "C=C1[C@H](O)CC(=C/C=C2\\CCC[C@]3(C)[C@@H]([C@H](C)CN4CCCC(O)(C(F)F)C4)CC[C@@H]23)C[C@H]1O (single isomer, unassigned) [Compound C036a]",
    "Numeric Result": 566
  },
  {
    "Molecule": "C=C1/C(=C\\C=C2/CCC[C@]3(C)[C@@H]([C@H](C)CN4CC[C@@H](C(F)F)C4)CC[C@@H]23)C[C@@H](O)C[C@@H]1O [Compound B024]",
    "Numeric Result": 652
  }
]

---

EC50 listing for selected molecules.
Molecular target: human VDR (Homo sapiens)
Sequence (P11473 1-427): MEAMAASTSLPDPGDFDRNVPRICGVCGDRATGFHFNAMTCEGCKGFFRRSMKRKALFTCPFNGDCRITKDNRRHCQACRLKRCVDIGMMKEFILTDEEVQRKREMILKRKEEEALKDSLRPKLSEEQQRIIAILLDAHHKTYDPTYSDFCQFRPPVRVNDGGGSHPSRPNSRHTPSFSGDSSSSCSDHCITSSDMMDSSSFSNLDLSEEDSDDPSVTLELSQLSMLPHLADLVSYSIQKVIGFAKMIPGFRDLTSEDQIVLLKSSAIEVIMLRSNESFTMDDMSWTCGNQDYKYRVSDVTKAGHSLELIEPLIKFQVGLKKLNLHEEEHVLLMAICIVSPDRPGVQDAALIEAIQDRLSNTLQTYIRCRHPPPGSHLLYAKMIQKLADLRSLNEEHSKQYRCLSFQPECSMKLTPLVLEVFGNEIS
Sequence (P19793 1-462 partner): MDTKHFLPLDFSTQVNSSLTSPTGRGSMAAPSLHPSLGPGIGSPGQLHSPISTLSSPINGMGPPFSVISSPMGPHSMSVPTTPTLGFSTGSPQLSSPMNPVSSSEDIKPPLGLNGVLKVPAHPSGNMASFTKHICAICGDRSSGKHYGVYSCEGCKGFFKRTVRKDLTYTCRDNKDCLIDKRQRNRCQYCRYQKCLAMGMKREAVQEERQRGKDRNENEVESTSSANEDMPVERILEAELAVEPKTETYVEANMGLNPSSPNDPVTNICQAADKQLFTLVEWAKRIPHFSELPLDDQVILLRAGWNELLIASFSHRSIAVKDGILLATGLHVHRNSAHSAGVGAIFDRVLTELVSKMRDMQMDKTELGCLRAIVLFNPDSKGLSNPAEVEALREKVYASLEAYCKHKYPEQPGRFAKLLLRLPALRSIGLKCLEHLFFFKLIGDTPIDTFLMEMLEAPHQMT
Assay: Evaluation of VDR transcription activity in human osteoblasts (HOS cells), luciferase reporter
Conditions: Activity (EC50, VDR transcription activity), HOS cells transfected with human VDR, human RXRα and DR3 luciferase reporter; 21 hours
Metric: EC50

[
  {
    "Molecule": "C=C1[C@H](O)CC(=C/C=C2\\CCC[C@]3(C)[C@@H]([C@H](C)CN4CCCC(O)(C(F)F)C4)CC[C@@H]23)C[C@H]1O (single isomer, unassigned) [Compound C036b]",
    "System": "human VDR (Homo sapiens)",
    "Result": "10 to 100 nM"
  },
  {
    "Molecule": "C[C@H](CN1CCC(O)(C(F)(F)F)CC1)[C@H]1CC[C@H]2/C(=C/C=C3C[C@@H](O)C[C@H](O)C3)CCC[C@]12C",
    "System": "human VDR (Homo sapiens)",
    "Result": "10 to 100 nM"
  },
  {
    "Molecule": "C=C1/C(=C\\C=C2/CCC[C@]3(C)[C@@H]([C@H](C)CN4CC[C@H](OCC(F)F)C4)CC[C@@H]23)C[C@@H](O)C[C@@H]1O",
    "System": "human VDR (Homo sapiens)",
    "Result": "10 to 100 nM"
  },
  {
    "Molecule": "C[C@H](CCN1CC[C@@H](F)C1)[C@H]1CC[C@H]2/C(=C/C=C3C[C@@H](O)C[C@H](O)C3)CCC[C@]12C",
    "System": "human VDR (Homo sapiens)",
    "Result": "10 to 100 nM"
  },
  {
    "Molecule": "C=C1/C(=C\\C=C2/CCC[C@]3(C)[C@@H]([C@@H](C)CN4CCC(C)(O)CC4)CC[C@@H]23)C[C@@H](O)C[C@@H]1O",
    "System": "human VDR (Homo sapiens)",
    "Result": "100 to 1000 nM"
  },
  {
    "Molecule": "C=C1/C(=C\\C=C2/CCC[C@]3(C)[C@@H]([C@@H](C)CN4CCCC(O)(C(F)(F)F)C4)CC[C@@H]23)C[C@@H](O)C[C@@H]1O (single isomer, unassigned) [Compound C033b]",
    "System": "human VDR (Homo sapiens)",
    "Result": "1 to 10 nM"
  },
  {
    "Molecule": "C=C1/C(=C\\C=C2/CCC[C@]3(C)[C@@H]([C@@H](C)CN4CC[C@H](C)C4)CC[C@@H]23)C[C@@H](O)C[C@@H]1O",
    "System": "human VDR (Homo sapiens)",
    "Result": "10 to 100 nM"
  }
]

// data source = patent US20230348376A1
